Provide the recorded MIC for the entries that follow.
Test system: Escherichia coli
Assay: Antibacterial activity against Escherichia coli AG102MB
Format: functional
// note: answer is a bare numeric in µg/mL

Exercise: Reported MIC for CC[n+]1c(-c2ccccc2)c2cc(N)ccc2c2ccc(N)cc21.[Br-] [HOMIDIUM BROMIDE] : what is it?
Solution: 4

Exercise: Reported MIC for CC(=O)O[C@H]1C[C@@]2(C)[C@@H](C[C@@H](O)[C@H]3[C@@]4(C)CC[C@@H](O)[C@@H](C)[C@@H]4CC[C@@]32C)/C1=C(\CCC=C(C)C)C(=O)O : what is it?
Solution: 16

Exercise: Reported MIC for CO[C@@H]1[C@@H](OC(N)=O)[C@@H](O)[C@H](Oc2ccc3c(O)c(NC(=O)c4ccc(O)c(CC=C(C)C)c4)c(=O)oc3c2C)OC1(C)C : what is it?
Solution: 4

* * *

Provide the recorded MIC for the entries that follow.
Tested on: Escherichia coli
Experiment: Antibacterial activity against Escherichia coli AG102MB harboring naive acrB gene
Type: functional

Exercise: Reported MIC for CC1(C)S[C@@H]2[C@H](NC(=O)[C@H](N)c3ccccc3)C(=O)N2[C@H]1C(=O)O : what is it?
Solution: > 1020 µg/mL

Exercise: Reported MIC for CC(=O)O[C@H]1C[C@@]2(C)[C@@H](C[C@@H](O)[C@H]3[C@@]4(C)CC[C@@H](O)[C@@H](C)[C@@H]4CC[C@@]32C)/C1=C(\CCC=C(C)C)C(=O)O : what is it?
Solution: > 512 µg/mL

Exercise: Reported MIC for CO[C@H]1C[C@H](O[C@H]2[C@H](C)[C@@H](O[C@@H]3O[C@H](C)C[C@H](N(C)C)[C@H]3O)[C@@H](C)C[C@@]3(CO3)C(=O)[C@H](C)[C@@H](O)[C@@H](C)[C@@H](C)OC(=O)[C@@H]2C)O[C@@H](C)[C@@H]1O : what is it?
Solution: > 1020 µg/mL
